These entries and their values trace back to PubChem BioAssay AID1985.

Give measured pIC50 for each item. Keep answers brief.
tested on: S. Typhi PhoP-promoter GFP reporter, fluorescence, 4 h; test: PhoP regulon inhibitor project modified counter assay, GFP fluorescence readout, dose response (AID 1985)
pIC50: −log10 of the molar value.

I'd like to know its pIC50. The compound in question is CCOc1ccc(Nc2nc(N)c3ccccc3n2)cc1
4.35

What does the record list as pIC50 for CCn1cc(C(=O)O)c(=O)c2cc(F)c(N3CCNCC3)cc21 ?
> 6.64

Sample CO[C@@]1(NC(=O)Cc2cccs2)C(=O)N2C(C(=O)O)=C(COC(N)=O)CS[C@@H]21 — what was its pIC50?
4.39

Would you mind telling me what pIC50 value was observed for Nc1nc(Nc2ccc(Cl)cc2)nc2ccccc12 ?
4.48

Entry under review: CN(C)CC/C=C1\c2ccc(F)cc2Sc2cc(F)c(Cl)cc21 . Reported pIC50?
4.44

Which value of pIC50 has been reported for Cc1ccc2nc(/C(C#N)=C\c3ccc([N+](=O)[O-])o3)[nH]c2c1 in the records?
4.63

# query: pIC50 of entry Cc1ccc(C(c2cc(Cl)c3cccnc3c2O)N2CCN(C)CC2)cc1 (stereo not drawn)
4.32

Look up pIC50: COc1ccc2nc(NC(=O)C3CC(=O)N(c4ccccc4)C3)sc2c1 (stereo not drawn)
3.97

Which pIC50 is reported for this compound? CCCCCCCCCCOC(=O)Cn1c(COc2ccc(C)cc2)[n+](C)c2ccccc21
4.78

Reported pIC50, compound Oc1c(I)cc(Cl)c2cccnc12 : ____
5.09

Field request: pIC50 | item: CCCCCCCCCC[N+](C)(C)CC/C=C1/c2ccccc2Sc2ccc(Cl)cc21
4.78

Quick check: pIC50 of CCN(CC)c1ccc(CNc2nc3ccccc3n2C)cc1 ?
4.01

Using the record for O=C(CCN1CCN(c2ccccc2)CC1)N/N=C/c1ccc([N+](=O)[O-])o1 , report its pIC50.
4.15

Field request: pIC50 | item: O=C(NC(=S)NNC(=O)c1cccs1)c1ccco1
4.40

Tell me the measured pIC50 of O=C(Nc1cccc(NC(=O)c2ccccc2Cl)c1)c1ccc([N+](=O)[O-])o1 , please.
4.76

// lookup pIC50 for CCN1CCN(C(=O)c2cc3cc(Cl)ccc3[nH]2)CC1
4.17

Would you kindly share the measured pIC50 for O=C(NC(CO)C(O)c1ccc([N+](=O)[O-])cc1)C(Cl)Cl (stereo not drawn) ?
5.59

# pIC50 lookup, item O=c1ccc2cc3c([nH]c4ccc(Br)cc43)oc-2c1O
4.65

GET /values?readout=pIC50&item= CCCCCCCCCCCCCCCCn1cc[n+](C)c1
4.72

What measured pIC50 goes with CC1CCc2c(N3CCC(O)CC3)c(F)cc3c(=O)c(C(=O)O)cn1c23 (stereo not drawn) ?
5.35

Give the measured pIC50 of OC(c1cc(C(F)(F)F)nc2c(C(F)(F)F)cccc12)C1CCCCN1 (stereo not drawn) .
4.43

Could you tell me which pIC50 is on file for O=C(CCN1CCOCC1)N/N=C/c1cc(Br)cc(Br)c1O ?
4.51

Given the compound Cc1ccc2c(c1)c1c(n2CC(O)CNC2CCCCC2)CCCC1 (stereo not drawn) , what is its reported pIC50?
3.87
